Could you please report measured pIC50 for the items listed next?
protocolNotes: Cytotoxicity against human HEK293 cells assessed as cell viability measured by Cell titre glo assay
Format: toxicity, cell-based
pIC50: −log10 of the molar value.

Q: What does the data say about its pIC50? Entry: CN(C)c1ccc([N+](=O)[O-])cc1/C=C1/C(=O)NN(c2cccc(Cl)c2)C1=O
Ans: < 4.00

Q: Please do the same for CCOC(=O)c1ccc(N2NC(=O)/C(=C/c3ccco3)C2=O)cc1 as well.
Ans: < 4.00

Q: Please do the same for O=C1NN(c2cccc(Br)c2)C(=O)/C1=C1/C(=O)Nc2ccccc21 as well.
Ans: 4.01

Q: Please do the same for CN1C(=O)/C(=C/c2cccc([N+](=O)[O-])c2)C(=O)N1c1ccccc1 as well.
Ans: 4.07

Q: Please do the same for Cc1ccc(N2NC(=O)/C(=C/c3cc4c(cc3[N+](=O)[O-])OCO4)C2=O)cc1Cl as well.
Ans: < 4.00

Q: Please do the same for O=C1NN(c2ccccc2)C(=O)/C1=C\c1cccc(C(F)(F)F)c1 as well.
Ans: 4.11

Q: Please do the same for COc1cc(/C=C2/C(=O)NN(c3ccc(F)cc3)C2=O)cc([N+](=O)[O-])c1O as well.
Ans: < 4.00

Q: Please do the same for CN(C)c1ccc(/C=C2/C(=O)NN(c3ccc(Br)cc3)C2=O)cc1 as well.
Ans: < 4.00
